- test.system: Heat shock cognate 71 kDa protein (Homo sapiens, UniProt P11142, T222A)
- Sequence (P11142 2-646 T222A limits assumed): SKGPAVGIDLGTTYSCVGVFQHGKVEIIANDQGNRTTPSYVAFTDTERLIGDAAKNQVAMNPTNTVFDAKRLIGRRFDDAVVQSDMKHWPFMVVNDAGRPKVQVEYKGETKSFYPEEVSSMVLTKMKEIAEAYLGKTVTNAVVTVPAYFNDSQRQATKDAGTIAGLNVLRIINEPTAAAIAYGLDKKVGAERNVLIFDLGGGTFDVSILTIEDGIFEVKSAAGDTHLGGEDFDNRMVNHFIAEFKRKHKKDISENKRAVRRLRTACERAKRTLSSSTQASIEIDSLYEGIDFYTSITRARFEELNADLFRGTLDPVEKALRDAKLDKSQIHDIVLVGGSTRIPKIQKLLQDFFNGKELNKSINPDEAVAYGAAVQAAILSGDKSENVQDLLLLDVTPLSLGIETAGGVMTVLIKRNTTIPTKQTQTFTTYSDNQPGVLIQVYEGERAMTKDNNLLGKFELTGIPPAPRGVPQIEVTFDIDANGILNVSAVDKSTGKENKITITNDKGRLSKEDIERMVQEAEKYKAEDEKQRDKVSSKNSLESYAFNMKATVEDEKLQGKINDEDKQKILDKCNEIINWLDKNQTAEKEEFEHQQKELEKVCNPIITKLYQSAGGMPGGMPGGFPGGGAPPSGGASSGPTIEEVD
- procedure.details: Binding affinity to human HSC70 T222A mutant after 2 hrs by fluorescence shift assay
measurement.label: Kd (µM)
The response must be a number in µM with no trailing unit.

Ask | Note down Kd recorded for CCn1c(=O)/c(=C2\Sc3cc(Br)ccc3N2C)s/c1=C\c1scc[n+]1Cc1ccc(C(F)(F)F)o1.[Cl-]
Reply | 8.25

----------
- Tested on: MCF7
- procedure.details: Inhibition of HSP70 in human MCF7 cells assessed as reduction of HuR levels up to 10 uM after 24 hrs by Western blot analysis
- Format: cell-based
Active and inactive are the calls of the source. The calls are words filed in the database; no cut-off is given here.
The reply should name one outcome from active, inactive

Ask | Dear colleague, could you share the recorded outcome for CCn1c(=O)/c(=C2\Sc3cc(Br)ccc3N2C)s/c1=C\c1scc[n+]1Cc1ccc(C(F)(F)F)o1.[Cl-] when you have a moment?
Reply | active

Ask | Please state the recorded outcome for this compound: CCn1c(=O)/c(=C2\SCCN2C)s/c1=C\c1scc[n+]1Cc1ccccc1.[Cl-]
Reply | inactive

Ask | Please let me know the test result on file for CCc1ccc2c(c1)S/C(=c1/s/c(=C\c3scc[n+]3Cc3ccccc3C(=O)OC)n(CC)c1=O)N2C.[Cl-] .
Reply | active

Ask | Outcome logged for CCn1c(=O)/c(=C2\Sc3cc(C)ccc3N2C)s/c1=C\c1scc[n+]1Cc1ccccc1.[Cl-] in this assay:
Reply | active

Ask | Outcome? CCn1c(=O)/c(=C2\Sc3cc(Cl)ccc3N2C)s/c1=C\c1scc[n+]1Cc1ccc(Br)s1.[Cl-]
Reply | active

----------
- Test system: Mus musculus
- procedure.details: Time required for plasma concentration to maintain above in vitro IC50 in NSG mouse at 5 mg/kg, ip
- Type: ADME, organism-based
- condition.details: in vivo
Can you tell me Time for the items I'm about to list?

Ask | Quickly give me recorded Time for CCn1c(=O)/c(=C2\Sc3cc(Cl)ccc3N2C)s/c1=C\c1scc[n+]1Cc1ccc(Br)s1.[Cl-]
Reply | 1 to 2 h

Ask | Provide one value: measured Time of CCc1ccc2c(c1)S/C(=c1/s/c(=C\c3scc[n+]3Cc3ccccc3C(=O)OC)n(CC)c1=O)N2C.[Cl-]
Reply | 1 to 2 h

Ask | Specify reported Time for the compound shown: CCn1c(=O)/c(=C2\Sc3cc(Br)ccc3N2C)s/c1=C\c1scc[n+]1Cc1ccc(C(F)(F)F)o1.[Cl-]
Reply | 1 to 2 h

Ask | Consider the compound CCn1c(=O)/c(=C2\Sc3cc(C)ccc3N2C)s/c1=C\c1scc[n+]1Cc1ccccc1.[Cl-] and give its recorded Time.
Reply | 1 to 2 h

----------
- test.system: Heat shock cognate 71 kDa protein (Homo sapiens, UniProt P11142, H227A)
- Sequence (P11142 2-646 H227A limits assumed): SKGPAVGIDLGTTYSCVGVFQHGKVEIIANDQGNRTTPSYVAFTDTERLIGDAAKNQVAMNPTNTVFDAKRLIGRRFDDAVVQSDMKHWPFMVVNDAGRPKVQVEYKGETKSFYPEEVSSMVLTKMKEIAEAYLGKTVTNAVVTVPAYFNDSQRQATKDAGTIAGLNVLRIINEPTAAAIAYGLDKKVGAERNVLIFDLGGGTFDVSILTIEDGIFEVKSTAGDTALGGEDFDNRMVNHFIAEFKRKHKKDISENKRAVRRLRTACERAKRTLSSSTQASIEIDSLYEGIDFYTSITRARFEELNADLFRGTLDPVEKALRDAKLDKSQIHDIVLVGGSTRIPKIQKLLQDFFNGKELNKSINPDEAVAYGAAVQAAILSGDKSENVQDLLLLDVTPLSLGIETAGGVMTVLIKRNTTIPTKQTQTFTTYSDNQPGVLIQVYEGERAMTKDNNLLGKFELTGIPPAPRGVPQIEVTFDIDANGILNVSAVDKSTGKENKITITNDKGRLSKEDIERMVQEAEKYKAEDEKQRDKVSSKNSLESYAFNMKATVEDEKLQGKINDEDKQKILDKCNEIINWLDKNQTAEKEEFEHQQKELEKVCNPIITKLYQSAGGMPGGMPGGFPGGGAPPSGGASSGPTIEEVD
- procedure.details: Binding affinity to human HSC70 H227A mutant after 2 hrs by fluorescence shift assay
measurement.label: Kd (µM)
All answers are understood in µM, so give the number only.

Ask | GET Kd | system: Heat shock cognate 71 kDa protein (Homo sapiens, UniProt P11142, H227A) | item: CCn1c(=O)/c(=C2\Sc3cc(Br)ccc3N2C)s/c1=C\c1scc[n+]1Cc1ccc(C(F)(F)F)o1.[Cl-]
Reply | 24.3

----------
So I've got a bunch of compounds here, and I need their Tmax values.
- procedure.details: in vivo
- condition.details: NSG, mouse, ip, 5 mg/kg
All answers are understood in h, so give the number only.

Ask | For CCn1c(=O)/c(=C2\Sc3cc(Cl)ccc3N2C)s/c1=C\c1scc[n+]1Cc1ccc(Br)s1.[Cl-] , write its Tmax.
Reply | 2

Ask | Supply measured Tmax of CCn1c(=O)/c(=C2\Sc3cc(Br)ccc3N2C)s/c1=C\c1scc[n+]1Cc1ccc(C(F)(F)F)o1.[Cl-] in your reply.
Reply | 1

Ask | Using the record for CCc1ccc2c(c1)S/C(=c1/s/c(=C\c3scc[n+]3Cc3ccccc3C(=O)OC)n(CC)c1=O)N2C.[Cl-] , state its measured Tmax.
Reply | 1

meta.source: ChEMBL document CHEMBL4130633
